Target: PD-1/PD-L1 protein/protein interaction (Homo sapiens, UniProt Q9NZQ7)
Construct: Recombinant human PD-L1 protein (19-238) with a His-tag at the C-terminus; purchased AcroBiosystems PD1-H5229 (PD-L1); PD1-H5257 (PD-1)
Sequence (Q9NZQ7 19-238): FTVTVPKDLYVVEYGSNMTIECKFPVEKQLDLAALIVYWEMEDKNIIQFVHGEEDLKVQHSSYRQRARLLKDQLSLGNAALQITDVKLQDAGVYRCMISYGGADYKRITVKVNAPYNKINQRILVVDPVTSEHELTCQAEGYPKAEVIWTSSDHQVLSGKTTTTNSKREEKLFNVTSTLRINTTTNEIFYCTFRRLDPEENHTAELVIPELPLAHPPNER
Experiment: PD-1/PD-L1 homogenous time-resolved fluorescence (HTRF) binding assay
Settings: HTRF, recombinant human PD-1 (Fc tag) / PD-L1 (His-tag), 25° C., PBS pH 7.4; read-out: IC50
Protocol: Resolved Fluorescence (HTRF) Binding Assay The assays were conducted in a standard black 384-well polystyrene plate with a final volume of […]. Inhibitors were first serially diluted in DMSO and then added to the plate wells before the addition of other reaction components. The final concentration of DMSO in the assay was 1%. The assays were carried out at 25° C. in the PBS buffer (pH 7.4) with 0.05% Tween-20 and 0.1% BSA. […]
MEASURE: IC50 (nM)

I. Cc1c(Nc2nccc3cc(CN4CCC[C@H]4C(=O)O)cnc23)cccc1-c1ccccc1 [Compound 4]
II. Cc1c(Nc2nccc3cc(CNCC(=O)O)cnc23)cccc1-c1ccccc1 [Compound 2]
III. Cc1c(Nc2nccc3cc(CNCC(=O)O)cnc23)cccc1-c1cccc(OCCCN2CCOCC2)c1C [Compound 1]
Query block: Ranking field: IC50; order: falling. Could you list the labels in the order requested?
Result block: I, II, III
(I: 13 nM, II: 3 nM, III: 0.43 nM)

a. Cc1c(Nc2nccc3cc(CN4CC(O)CC4C(=O)O)cnc23)cccc1-c1cccc(OCCCN2CCOCC2)c1C (stereo not drawn) [Compound 6]
b. Cc1c(Nc2nccc3cc(CNCCCC(=O)O)cnc23)cccc1-c1cccc(OCCCN2CCOCC2)c1C [Compound 8]
Query block: Given the listed records, identify the one among a and b with higher IC50. Mark your selection by writing its label.
Result block: a
